- protocol.text: Drug metabolism in mouse liver microsomes at 5 uM in presence of NADPH incubated for 30 mins under hypoxia conditions by HPLC method
- Type: ADME
- protocol.conditions: read-out: Drug metabolism
experimental.readout: metabolised at 0.5 h, 5 µM

Report metabolised at 0.5 h, 5 µM for C#Cc1cccc(Nc2ncnc3cc(OCCCCCn4ccnc4[N+](=O)[O-])c(OC)cc23)c1 please.
> 80%

====

- protocol.text: Drug metabolism in mouse liver microsomes at 5 uM in presence of NADPH incubated for 30 mins under normoxia conditions by HPLC method
- Assay type: ADME
- protocol.conditions: read-out: Drug metabolism
experimental.readout: metabolised at 0.5 h, 5 µM

So what does the record say about metabolised at 0.5 h, 5 µM for C#Cc1cccc(Nc2ncnc3cc(OCCCCCn4ccnc4[N+](=O)[O-])c(OC)cc23)c1 ?
< 10%

====

Record set of IC50 for target or system Epidermal growth factor receptor (Homo sapiens, UniProt P00533).
// note: answer is a bare numeric in nM

API: value(readout=IC50, system=Epidermal growth factor receptor (Homo sapiens, UniProt P00533)) for record COc1cc2c(Nc3ccc(F)c(Cl)c3)ncnc2cc1OCCCCn1ccnc1[N+](=O)[O-]
0.31

Record lookup: for Epidermal growth factor receptor (Homo sapiens, UniProt P00533), what IC50 belongs to COc1cc2c(Nc3ccc(F)c(Cl)c3)ncnc2cc1OCCCCCCn1ccnc1[N+](=O)[O-] ?
1.44

What is its IC50 for Epidermal growth factor receptor (Homo sapiens, UniProt P00533)? Entry: COc1cc2c(Nc3cccc(Br)c3)ncnc2cc1OCCCCCn1ccnc1[N+](=O)[O-]
0.33

Please tell me: IC50 of C#Cc1cccc(Nc2ncnc3cc(OCCOCCn4ccnc4[N+](=O)[O-])c(OC)cc23)c1 , system Epidermal growth factor receptor (Homo sapiens, UniProt P00533)?
0.54

Hello, I am looking for reported IC50 with Epidermal growth factor receptor (Homo sapiens, UniProt P00533) for C#Cc1cccc(Nc2ncnc3cc(OCCCCn4ccnc4[N+](=O)[O-])c(OC)cc23)c1 . Could you help?
0.26

Which measured IC50 belongs to COc1cc2c(Nc3cccc(Br)c3)ncnc2cc1OCCCCn1ccnc1[N+](=O)[O-] , tested on Epidermal growth factor receptor (Homo sapiens, UniProt P00533)?;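 also: Wild-type EGFR enzyme inhibition, measured with a Z'-Lyte kinase assay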
Sequence (P00533 whole entry): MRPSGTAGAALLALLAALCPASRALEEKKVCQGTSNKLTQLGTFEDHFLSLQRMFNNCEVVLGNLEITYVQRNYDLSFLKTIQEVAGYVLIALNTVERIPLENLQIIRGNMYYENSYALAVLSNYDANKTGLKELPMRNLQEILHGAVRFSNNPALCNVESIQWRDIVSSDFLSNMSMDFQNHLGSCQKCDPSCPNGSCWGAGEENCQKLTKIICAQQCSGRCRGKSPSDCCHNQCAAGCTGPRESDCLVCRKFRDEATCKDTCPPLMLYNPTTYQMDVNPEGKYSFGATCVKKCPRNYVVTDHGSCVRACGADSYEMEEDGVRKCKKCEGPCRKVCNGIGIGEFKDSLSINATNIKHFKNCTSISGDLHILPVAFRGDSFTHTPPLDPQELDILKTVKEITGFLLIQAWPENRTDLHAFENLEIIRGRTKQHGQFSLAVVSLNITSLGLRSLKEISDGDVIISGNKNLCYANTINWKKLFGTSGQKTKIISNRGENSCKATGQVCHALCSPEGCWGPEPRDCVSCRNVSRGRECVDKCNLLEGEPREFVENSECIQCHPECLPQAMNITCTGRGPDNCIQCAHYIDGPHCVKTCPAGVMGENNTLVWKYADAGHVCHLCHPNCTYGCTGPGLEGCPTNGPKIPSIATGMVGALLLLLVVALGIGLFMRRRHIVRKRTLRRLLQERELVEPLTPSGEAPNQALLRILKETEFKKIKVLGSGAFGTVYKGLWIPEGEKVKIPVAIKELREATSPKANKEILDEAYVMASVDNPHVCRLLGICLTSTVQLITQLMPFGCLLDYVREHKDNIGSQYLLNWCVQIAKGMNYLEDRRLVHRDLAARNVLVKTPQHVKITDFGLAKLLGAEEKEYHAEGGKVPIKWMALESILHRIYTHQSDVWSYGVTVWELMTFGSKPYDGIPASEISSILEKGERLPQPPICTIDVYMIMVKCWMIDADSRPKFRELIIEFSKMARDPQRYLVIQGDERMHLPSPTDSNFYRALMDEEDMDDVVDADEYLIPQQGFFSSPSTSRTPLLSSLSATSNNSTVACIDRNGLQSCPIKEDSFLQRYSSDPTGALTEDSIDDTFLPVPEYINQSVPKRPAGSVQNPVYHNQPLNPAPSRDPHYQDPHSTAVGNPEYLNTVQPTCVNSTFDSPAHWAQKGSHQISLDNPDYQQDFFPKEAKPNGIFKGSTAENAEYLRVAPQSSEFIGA
0.37
